Target: human c-Met (HGFR), full length, on the cell surface (human, UniProt P08581 25-1390)
Sequence (P08581 25-1390 limits assumed): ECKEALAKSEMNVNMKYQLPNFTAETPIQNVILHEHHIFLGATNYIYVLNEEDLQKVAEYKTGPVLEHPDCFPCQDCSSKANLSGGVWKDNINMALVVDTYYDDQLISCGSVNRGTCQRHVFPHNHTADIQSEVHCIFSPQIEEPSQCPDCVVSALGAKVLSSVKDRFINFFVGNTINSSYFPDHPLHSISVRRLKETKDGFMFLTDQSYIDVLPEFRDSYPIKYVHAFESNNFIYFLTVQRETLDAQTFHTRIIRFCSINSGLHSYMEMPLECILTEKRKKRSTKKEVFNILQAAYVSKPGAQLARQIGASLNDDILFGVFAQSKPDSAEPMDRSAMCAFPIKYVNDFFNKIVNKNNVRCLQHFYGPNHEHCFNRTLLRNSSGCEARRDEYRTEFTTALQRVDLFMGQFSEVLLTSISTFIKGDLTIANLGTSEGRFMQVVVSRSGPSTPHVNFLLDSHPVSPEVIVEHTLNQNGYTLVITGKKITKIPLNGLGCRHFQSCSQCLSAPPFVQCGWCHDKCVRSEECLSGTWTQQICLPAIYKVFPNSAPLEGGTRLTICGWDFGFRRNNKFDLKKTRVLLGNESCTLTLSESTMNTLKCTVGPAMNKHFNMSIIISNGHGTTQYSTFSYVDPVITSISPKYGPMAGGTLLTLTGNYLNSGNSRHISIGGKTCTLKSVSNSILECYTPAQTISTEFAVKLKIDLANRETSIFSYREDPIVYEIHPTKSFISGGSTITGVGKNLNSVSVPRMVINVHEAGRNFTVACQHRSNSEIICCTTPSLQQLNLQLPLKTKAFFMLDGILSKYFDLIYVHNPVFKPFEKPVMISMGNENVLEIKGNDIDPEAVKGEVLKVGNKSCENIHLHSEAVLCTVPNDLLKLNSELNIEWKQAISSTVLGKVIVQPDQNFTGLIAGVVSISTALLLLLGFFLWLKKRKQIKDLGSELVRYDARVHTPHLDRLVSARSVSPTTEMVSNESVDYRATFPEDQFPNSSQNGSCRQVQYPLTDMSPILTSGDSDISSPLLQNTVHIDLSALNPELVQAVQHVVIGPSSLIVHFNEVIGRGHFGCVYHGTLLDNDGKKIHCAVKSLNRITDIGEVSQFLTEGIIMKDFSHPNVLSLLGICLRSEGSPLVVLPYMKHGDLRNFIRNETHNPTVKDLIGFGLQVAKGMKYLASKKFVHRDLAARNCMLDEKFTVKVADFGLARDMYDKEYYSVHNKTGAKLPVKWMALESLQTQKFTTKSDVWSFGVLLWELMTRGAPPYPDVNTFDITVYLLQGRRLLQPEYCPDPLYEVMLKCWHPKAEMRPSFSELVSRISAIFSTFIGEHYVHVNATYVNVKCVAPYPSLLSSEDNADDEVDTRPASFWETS
Experiment: cell-based or functional assay
Catalogue of IC50, in vitro cytotoxicity, MKN-45, -HGF values
measuredProperty: IC50, in vitro cytotoxicity, MKN-45, -HGF (nM)

1. ADC3d (antibody, human IgG1, kappa, V domains shown, vc-seco-DUBA linker-drug on the engineered cysteine at HC position 41 (Kabat); DAR 1.8) VH: QVQLQESGAEVKKPGASVKVSCKASGYTFTDYYLNWVRQACGQGLEWMGLIFPGNDKTEYSEKFKGRVTMTRDTSTSTVYMELSSLRSEDTAVYYCSGGDYGGFVYWGQGTLVTVSS VL: DIQLTQSPSSLSASVGDRVTITCGASENIYGALNWYQQKPGKAPKLLIYGATNLADGVPSRFSGSGSGTDFTLTISSLQPEDFATYYCQNVLSSPLTFGPGTKVDIKR = 0.5
2. ADC2a (antibody, human IgG1, kappa, V domains shown, vc-seco-DUBA linker-drug on the engineered cysteine at HC position 41 (Kabat); DAR 1.7) VH: QVQLVQSGAELRKPGSSVKVSCRASGYVFPDYEMHWVRQACGQGLEWMGAFDPETGDTTYNQNFKGRVTIAADKSTSTAYMELRSLRSEDTAIYYCARDYKYLYYYAMDNWGQGTMVTVSS VL: EIVLTQSPSLLSASIGDRVTIPCTASSSITSSYLHWYQQKPGKAPKLLIYSTTNLASGVPSRFSGSGSGTEFTLTISSLQPEDFATYYCHQYRRSPLTFGGGTKLEIKR = 0.44
3. ADC2 (antibody, human IgG1, kappa, V domains shown, vc-seco-DUBA linker-drug on the engineered cysteine at HC position 41 (Kabat); DAR 1.7) VH: QVQLQQSGAELVRPGASVKLSCKASGYVFPDYEMHWVKQTCVHGLEWIGAFDPETGDTTYNQNFKGKATLTADKASSTAYMDLRSLTSGDSAVYYCARDYKYLYYYAMDNWGQGTSVTVSS VL: QIVLTQSPAIMSASLGERVTMTCTASSSITSSYLHWYQQKPGSSPKLWIYSTTNLASGVPGRFSGSGSGTSFSLTISSMEAEDAATYYCHQYRRSPLTFGAGTKLELKR = 0.44
4. ADC1a (antibody, human IgG1, kappa, V domains shown, vc-seco-DUBA linker-drug on the engineered cysteine at HC position 41 (Kabat); DAR 1.7) VH: QVQLVQSGAEVKKPGASVKVSCKASGYIFTDYFMNWVRQACGQGLEWMGRVNPKNGDITYNQKFRGRVSLTKDTSINTAYMELSGLTSDDTAIYYCAYDGYYDGMDFWGQGTSVTVSS VL: ELVMTQSPSSLSASVGDRVTITCRANSSVSSNFLHWYQQKPGKAPKLLISSTSNLAFGVPSRFSGTGSGTDFSLTISSLQPEDFAIYYCHQYSGHPFTFGQGTKLEIKR = 0.42
